// values below are reported Kd
ASSAY TARGET: T1, LAG3 Protein, Human, Recombinant (His Tag) (Sino Biological Catalog No. 16498-H08H) (human, UniProt P18627 23-450)
T1 construct: Bought protein; also called hLAG3-His; LAG3-His; not shown: His tag
T1 sequence (looked up): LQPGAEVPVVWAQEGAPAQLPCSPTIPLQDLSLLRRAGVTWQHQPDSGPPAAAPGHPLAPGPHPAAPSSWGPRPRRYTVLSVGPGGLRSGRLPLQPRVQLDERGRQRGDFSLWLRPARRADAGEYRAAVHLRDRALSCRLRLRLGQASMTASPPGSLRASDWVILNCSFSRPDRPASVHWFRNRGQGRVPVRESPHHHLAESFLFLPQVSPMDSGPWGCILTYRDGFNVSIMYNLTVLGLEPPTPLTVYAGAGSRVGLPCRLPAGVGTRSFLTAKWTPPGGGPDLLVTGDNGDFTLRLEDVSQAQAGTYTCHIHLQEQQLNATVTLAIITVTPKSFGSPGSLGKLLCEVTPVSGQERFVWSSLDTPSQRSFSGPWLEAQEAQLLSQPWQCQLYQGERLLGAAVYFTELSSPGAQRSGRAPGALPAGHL
ASSAY METHOD TEXT: SPR (Biacore), sdAb captured by anti-human Fc, LAG3-His analyte
Just the number in nM, nothing appended.

BINDER	READOUT NAME	VALUE OBSERVED
sdAb No. 20 (VHH, Fc of the tested form not described; also called sdAb 20; not shown: Fc part implied by anti-human Fc capture) VHH: QVQLVESGGGLVQPGGSLRLSCAASGLTLDGYAVGWFRQAPGKDREGLSCISGSDGSTHYLDSVKGRFTISRDNAKSTMALQMNSLQFGDTAIYYCAARRGSCSGSWTYWGQGTQVTVSS	Kd	0.252

Inquiry: Please give the measured Kd for this binder: sdAb No. 17 (VHH, Fc of the tested form not described; also called sdAb 17; not shown: Fc part implied by anti-human Fc capture and anti-human IgG1 Fc detection) VHH: QLQLVESGGGLVQPGGSLRLSCAASGLTLDGYAIGWFRQAPGKEREGLACISGSDGSTHYLDSVKGRFTISRDNGKNTMALQMNSLQFGDTAIYYCAARRGSCSGSWTYWGQGTQVTVSS
Reply text: 0.181

Inquiry: Please give the measured Kd for this binder: sdAb No. 25 (VHH, Fc of the tested form not described; also called sdAb 25; sdAb #25; not shown: Fc part implied by anti-human Fc capture and anti-human IgG Fc detection) VHH: QLQLVESGGGLVQAGGSLRLSCAASGSIESFSFMGWYRQAPGKQRELVAGFTGAASLSFSTYTDAVKGRFTISRDNAKNTVYLQMNSLKPEDTAVYFCNVDPWSQSWPGRYWGQGTQVTVSS
Reply text: 0.017

Inquiry: Please give the measured Kd for this binder: sdAb No. 21 (VHH, Fc of the tested form not described; also called sdAb 21; not shown: Fc part implied by anti-human Fc capture) VHH: QLQLVESGGGLVQPGGSLRLSCAASGLTLDGYAIAWFRQAPGKEREGLSCISGTDGSTHYLDSVKGRFTISRDNGKNTMALQMNSLQFGDTAIYYCAARRGSCSGSWTYWGQGTQITVSS
Reply text: 0.278

Inquiry: Please give the measured Kd for this binder: sdAb No. 24 (VHH, Fc of the tested form not described; also called sdAb 24; not shown: Fc part implied by anti-human Fc capture) VHH: QLQLVESGGGLVQPGGSLRLSCAASGFTLNEHAIGWFRQAPGKEREGVSCISSSDGSTYYHDSVKGRFTMSRDDAKNTVYLQMNSLKAEDTAIYYCAAALGRDCQGGQWKTSSWGQGTQVTVSS
Reply text: 0.038

Inquiry: Please give the measured Kd for this binder: sdAb No. 8 (VHH, Fc of the tested form not described; not shown: Fc part implied by anti-human Fc capture) VHH: QLQLVESGGGLVQPGGSLRLSCAASGFTLDYYAIGWFRQAPGKEREGVSCISSSDGSTYYADSVKGRFTISRDNAKNTVYLQMNSLKPEDTAIYYCARDSLSGSGYGCRGPYDYWGQGTQVTVSS
Reply text: 0.347

Inquiry: Please give the measured Kd for this binder: sdAb No. 73 (VHH, Fc not described; also called sdAb 73; not shown: Fc part implied by anti-human Fc capture) VHH: QVQLVESGGGLVQPGGSLKLSCTASGFTLDYYAIAWFRQAPGKEREAVSCISSSDGSTRYADSVKGRFTISRDNAKNTVYLQMNSLKPEDTAVYYCAADPYGDCRGPYDYWGQGTQVTVSS
Reply text: 0.182
